# System Tested: Human-Renin (Homo sapiens, UniProt P00797)
# Sequence (P00797 67-406): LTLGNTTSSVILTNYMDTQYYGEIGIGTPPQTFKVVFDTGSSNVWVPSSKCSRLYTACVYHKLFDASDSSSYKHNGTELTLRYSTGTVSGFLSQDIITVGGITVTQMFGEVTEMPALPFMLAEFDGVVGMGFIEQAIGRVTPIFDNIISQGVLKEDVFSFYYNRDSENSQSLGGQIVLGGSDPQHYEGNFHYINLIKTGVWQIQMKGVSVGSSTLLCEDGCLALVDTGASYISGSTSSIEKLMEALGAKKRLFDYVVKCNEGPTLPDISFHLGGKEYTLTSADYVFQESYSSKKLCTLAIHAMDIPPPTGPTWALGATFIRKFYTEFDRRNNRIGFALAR
# Test Name: In vitro test with pure human renin (angiotensin I production from human tetradecapeptide renin substrate, measured by RIA)
# Type: biochemical
# Details: pure human renin, substrate hTD, pH 7,4, incubation 3 h at 37°C vs 4°C, angiotensin I by RIA; IC50 from logit-log plot; read-out: IC₅₀-Werte
Reported Metric: IC50 (nM)
Could you give me the number in nM? Just the number is fine.

Known results for compounds:
| Smiles String | Reported Metric | Unit Tag | Obs Value |
| --- | --- | --- | --- |
| CCC(CC)C[C@H](O)[C@H](CC1CCCCC1)NC(=O)[C@H](Cc1c[nH]cn1)NC(=O)[C@H](Cc1ccccc1)NC(=O)[C@H]1CCCN1C(=O)OC(C)(C)C | IC50 | nM | 1 |
| CCC(F)(CC)C[C@H](O)[C@H](CC1CCCCC1)NC(=O)[C@H](Cc1c[nH]cn1)NC(=O)[C@@H](CC(=O)C(C)(C)C)Cc1ccccc1 | IC50 | nM | 5 |

### Prompt Any idea what IC50 was measured for C=C[C@H](CC)C[C@H](O)[C@H](CC1CCCCC1)NC(=O)[C@H](Cc1cnc[nH]1)NC(=O)[C@H](Cc1ccccc1)CS(=O)(=O)C(C)(C)C ?
### Response 1

----------
# System Tested: Human-Renin (Homo sapiens)
# Test Name: In vitro test with pure human renin (angiotensin I production from human tetradecapeptide renin substrate, measured by RIA)
# Assay type: biochemical
# Details: pure human renin, substrate hTD, pH 7,4, incubation 3 h at 37°C vs 4°C, angiotensin I by RIA; IC50 from logit-log plot; read-out: IC₅₀-Werte
# Text: In vitro-Test mit reinem Human-Renin Der Test wird in Eppendorf Röhrchen durchgeführt. […]
Below is a list of entries, each paired with its recorded IC50 value.
Form entry: value (nM) — number only.

| Compound | IC50, nM |
| --- | --- |
| C=C[C@H](CC)C[C@H](O)[C@H](CC1CCCCC1)NC(=O)[C@H](Cc1c[nH]cn1)NC(=O)[C@@H](CC(=O)C(C)(C)C)Cc1ccccc1 | 4.2 |

### Prompt # query: IC50 | item CC(C)(C)OC(=O)N[C@@H](Cc1ccccc1)C(=O)N[C@@H](Cc1c[nH]cn1)C(=O)N[C@@H](CC1CCCCC1)C(O)CC1CCCCC1 (single isomer, unassigned) | system: Human-Renin (Homo sapiens)
### Response 2.6

### Prompt Form: Entry = C=C[C@H](CC)C[C@H](O)[C@H](CC1CCCCC1)NC(=O)[C@H](Cc1c[nH]cn1)NC(=O)[C@H](Cc1ccccc1)NC(=O)[C@H]1CCCN1C(=O)OC(C)(C)C | System = Human-Renin (Homo sapiens) | IC50 = ____
### Response 0.2
